- tested-target: Human α2δ-1 Subunit of Cav2.2 Calcium Channel (Homo sapiens)
- Sequence (P54289 25-1103): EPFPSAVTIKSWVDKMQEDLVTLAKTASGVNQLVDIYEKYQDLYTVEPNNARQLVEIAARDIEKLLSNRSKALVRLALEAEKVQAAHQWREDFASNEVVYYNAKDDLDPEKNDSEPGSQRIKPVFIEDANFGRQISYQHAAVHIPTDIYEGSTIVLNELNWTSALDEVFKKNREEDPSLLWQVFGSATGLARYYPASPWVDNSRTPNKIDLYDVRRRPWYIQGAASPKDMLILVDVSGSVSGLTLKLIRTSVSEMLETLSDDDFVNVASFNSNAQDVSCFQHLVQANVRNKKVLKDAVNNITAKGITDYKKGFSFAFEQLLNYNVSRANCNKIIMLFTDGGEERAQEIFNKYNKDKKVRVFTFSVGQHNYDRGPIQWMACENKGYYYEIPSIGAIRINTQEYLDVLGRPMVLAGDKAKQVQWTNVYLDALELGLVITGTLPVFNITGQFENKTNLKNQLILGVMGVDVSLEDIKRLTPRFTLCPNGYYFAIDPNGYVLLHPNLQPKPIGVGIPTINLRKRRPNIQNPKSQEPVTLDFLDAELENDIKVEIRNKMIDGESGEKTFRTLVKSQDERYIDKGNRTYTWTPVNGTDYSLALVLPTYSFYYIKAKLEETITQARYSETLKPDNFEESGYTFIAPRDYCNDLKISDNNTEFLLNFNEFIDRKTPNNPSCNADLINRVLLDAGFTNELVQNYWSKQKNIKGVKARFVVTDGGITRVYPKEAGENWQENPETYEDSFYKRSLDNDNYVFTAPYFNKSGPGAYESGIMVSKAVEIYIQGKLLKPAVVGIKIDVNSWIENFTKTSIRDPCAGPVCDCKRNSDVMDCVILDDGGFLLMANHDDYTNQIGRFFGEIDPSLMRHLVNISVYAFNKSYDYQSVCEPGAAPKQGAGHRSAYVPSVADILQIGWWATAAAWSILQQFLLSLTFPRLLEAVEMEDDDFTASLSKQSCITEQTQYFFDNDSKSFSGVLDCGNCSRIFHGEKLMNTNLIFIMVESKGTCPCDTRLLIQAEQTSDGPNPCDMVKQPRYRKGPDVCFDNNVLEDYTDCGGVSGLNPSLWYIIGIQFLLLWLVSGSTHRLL
- protocol-summary: Binding assay to human α2δ-1 subunit of Cav2.2 calcium channel ([3H]-Gabapentin)
- assay-conditions: Table 1; human α2δ-1 enriched membranes, 15 nM [3H]-Gabapentin; read-out: Ki(nM) alpha2delta Hum
- Method: Binding Assay to Human α2δ-1 Subunit of Cav2.2 Calcium Channel. Human α2δ-1 enriched membranes (2.5 μg) were incubated with 15 nM of radiolabeled [3H]-Gabapentin in assay buffer containing Hepes-KOH 10 mM, pH 7.4. NSB (non specific binding) was measured by adding 10 μM pregabalin. The binding of the test compound was measured in five different concentrations. […] Filter plates were dried at 60° C. for 1 hour and 30 μl of scintillation cocktail were added to each well before radioactivity reading. […]
Below, each entry is listed with its recorded Ki.

# annotated cases, reported Ki shown
[[record]]
compound = "CNCCC(Oc1cccc(N(C)C(=O)c2ccccc2)c1)c1ccccc1 (stereo not shown)"
quantity_name = "Ki"
result = "≥ 3000 nM"

[[record]]
compound = "CNCCNC(=O)c1cccc(OC(CCNC)c2ccccc2)c1 (stereo not shown)"
quantity_name = "Ki"
result = "500 to 3000 nM"

[[record]]
compound = "CNCCC(OCc1cccc(NC(=O)c2ccccc2N(C)C)c1)c1cccs1 (stereo not shown)"
quantity_name = "Ki"
result = "≥ 3000 nM"

[[record]]
compound = "CNCCC(Oc1cccc(C(=O)N(C)c2cccnc2)c1)c1ccccc1 (stereo not shown)"
quantity_name = "Ki"
result = "≥ 3000 nM"

[[record]]
compound = "CCN(Cc1cccc(OC(CCNC)c2cccs2)c1)C(=O)c1ccccc1 (stereo not shown)"
quantity_name = "Ki"
result = "≥ 3000 nM"

[[record]]
compound = "CNCCC(OCc1cccc(N(C(C)=O)c2ccccc2)c1)c1ccccc1 (stereo not shown)"
quantity_name = "Ki"
result = "≥ 3000 nM"

[[record]]
compound = "CNCCC(Oc1cccc(CN(C)Cc2ccccc2)c1)c1cccs1 (stereo not shown)"
quantity_name = "Ki"
result = "100 to 500 nM"

[[record]]
compound = "CNCCC(Oc1cccc(N(C)C(=O)c2cccnc2)c1)c1cccs1 (stereo not shown)"
quantity_name = "Ki"
result = "≥ 3000 nM"


Task item: What value of Ki has been reported for the following compound? CNCCC(OCc1cccc(NC(=O)c2ccccn2)c1)c1ccccc1 (stereo not shown)
Reply: ≥ 3000 nM

Task item: What value of Ki has been reported for the following compound? CCNC(=O)c1cccc(OC(CCNC)c2ccccc2)c1 (stereo not shown)
Reply: ≥ 3000 nM

Task item: What value of Ki has been reported for the following compound? CNCCC(OCc1cccc(NC(=O)c2cncnc2)c1)c1ccccc1 (stereo not shown)
Reply: ≥ 3000 nM

Task item: What value of Ki has been reported for the following compound? CNCCC(OCc1cccc(NC(=O)c2ccccc2F)c1)c1cccs1 (stereo not shown)
Reply: ≥ 3000 nM

Task item: What value of Ki has been reported for the following compound? CNCCC(OCc1cccc(NCc2ccccc2)c1)c1ccccc1 (stereo not shown)
Reply: ≥ 3000 nM

Task item: What value of Ki has been reported for the following compound? CNCCC(Oc1cccc(N(C)C(=O)c2cccc(CN)c2)c1)c1ccccc1 (stereo not shown)
Reply: ≥ 3000 nM

Task item: What value of Ki has been reported for the following compound? CNCCC(Oc1cccc(C(=O)Nc2ccccc2N(C)C)c1)c1cccs1 (stereo not shown)
Reply: 500 to 3000 nM

Task item: What value of Ki has been reported for the following compound? CNCCC(Oc1ccc(CN(C)Cc2ccccc2)c(F)c1)c1cccs1 (stereo not shown)
Reply: ≥ 3000 nM

Task item: What value of Ki has been reported for the following compound? CCNc1ncc(C(=O)N(C)c2cccc(OC(CCNC)c3cccs3)c2)c(N2CCCC2)n1 (stereo not shown)
Reply: 500 to 3000 nM

Task item: What value of Ki has been reported for the following compound? CCNc1ncc(C(=O)Nc2cccc(OC(CCNC)c3ccccc3)c2)c(N2CCCC2)n1 (stereo not shown)
Reply: ≥ 3000 nM

Task item: What value of Ki has been reported for the following compound? CNCCC(Oc1cccc(N(C)C(C)=O)c1)c1ccccc1 (stereo not shown)
Reply: ≥ 3000 nM
